Numbers sourced from patent US20190127359A1.

// IC50 lookup, one value per entry
- experimentalSystem: VHL (Homo sapiens)
- testName: Fluorescence polarization competition assay (HIF-1α peptide FP displacement)
- measurementContext: IC50 (μM) 10% DMSO, 10% DMSO
metricName: IC50 (µM)

smilesRecord	metricName	relation	numericValue
COC(=O)Cc1cn(CC(=O)N2C[C@H](O)C[C@H]2C(=O)NCc2ccc(-c3ccccc3)cc2)nn1	IC50	=	28.2
O=C(NCc1ccc(Cl)cc1)[C@@H]1C[C@@H](O)CN1C(=O)c1cccc(C(F)(F)F)c1	IC50	=	60.2
Cc1cc(CC(=O)N2C[C@H](O)C[C@H]2C(=O)NCc2ccc(N(C)C)cc2)on1	IC50	=	280
Nc1ccccc1C(=O)N1C[C@H](O)C[C@H]1C(=O)NCc1ccc(Cl)cc1	IC50	=	38.2
O=C(NCc1ccc(Cl)cc1)[C@@H]1C[C@@H](O)CN1C(=O)c1ccc([N+](=O)[O-])c(O)c1	IC50	=	460
Cc1cc(CC(=O)N2C[C@H](O)C[C@H]2C(=O)NCc2ccc(-c3ncco3)cc2)on1	IC50	=	11.3
O=C(NCc1ccc(Cl)cc1)[C@@H]1C[C@@H](O)CN1C(=O)c1ccccn1	IC50	=	244
Cc1cc(CC(=O)N2C[C@H](O)C[C@H]2C(=O)Nc2ccc(Br)cc2F)on1	IC50	>	1000
Cc1cc(CC(=O)N2C[C@H](O)C[C@H]2C(=O)NCc2ccc(Br)cc2)on1	IC50	=	24.9
Cc1cc(CC(=O)N2C[C@H](O)C[C@H]2C(=O)NCc2ccccc2Cl)on1	IC50	=	210
Cc1ccc(S(=O)(=O)N2C[C@H](O)C[C@H]2C(=O)NCc2cccc(Cl)c2)cc1	IC50	>	1000
O=C(NCc1ccc(Cl)cc1)[C@@H]1C[C@@H](O)CN1C(=O)c1ccncc1	IC50	=	32.5
Cc1cc(CC(=O)N2C[C@H](O)C[C@H]2C(=O)NCc2ccc(Cl)cc2Cl)on1	IC50	=	27.1

###

// IC50 lookup, one value per entry
- experimentalSystem: VHL (Homo sapiens)
- testName: Fluorescence polarization competition assay (HIF-1α peptide FP displacement)
- measurementContext: IC50 (μM) 1% DMSO, 1% DMSO

smilesRecord	relation	IC50 [µM]
Cc1cc(CC(=O)N2C[C@H](O)C[C@H]2C(=O)NCc2ccc(-c3cc[nH]c3)cc2)on1	=	7.5
Cc1cc(CC(=O)N2C[C@H](O)C[C@H]2C(=O)NCc2cccc(-c3scnc3C)c2)on1	=	19
Cc1cc(CC(=O)N2C[C@H](O)C[C@H]2C(=O)NCc2ccc(-c3cscn3)cc2)on1	=	77
COC(=O)Cc1cn(CC(=O)N2C[C@H](O)C[C@H]2C(=O)NCc2ccc(-c3ccccc3)cc2)nn1	=	540
Cc1cc(CC(=O)N2C[C@H](O)C[C@H]2C(=O)N[C@@H](CO)c2ccc(Cl)cc2)on1	=	35
Cc1cc(CC(=O)N2C[C@H](O)C[C@H]2C(=O)NCc2ccc(-c3c(C)noc3C)cc2)on1	=	70
O=C(NCc1ccc(Cl)cc1)[C@@H]1C[C@@H](O)CN1C(=O)c1cccc2cnccc12	=	224
O=C(NCc1ccc(Cl)cc1)[C@@H]1C[C@@H](O)CN1C(=O)Cn1ccnc1	>	1000

###

// IC50 lookup, one value per entry
- experimentalSystem: VHL (Homo sapiens)
- testName: Fluorescence polarization competition assay (HIF-1α peptide FP displacement)
- measurementContext: IC50 (μM) 10% DMSO, 10% DMSO
metricName: IC50

smilesRecord	result
N#Cc1ccc(CC(=O)N2C[C@H](O)C[C@H]2C(=O)NCc2ccc(Cl)cc2)cc1	939 µM
O=C(NCc1ccc(Cl)cc1)[C@@H]1C[C@@H](O)CN1C(=O)c1cccc2cnccc12	57.9 µM
Cc1cc(CC(=O)N2C[C@H](O)C[C@H]2C(=O)NCc2ccc(-c3ccncc3)cc2)on1	16 µM
Cc1nc(C(=O)N2C[C@H](O)C[C@H]2C(=O)NCc2ccc(Cl)cc2)co1	940 µM

###

- experimentalSystem: VHL (Homo sapiens, UniProt P40337)
- testName: Fluorescence polarization competition assay (HIF-1α peptide FP displacement)
- measurementContext: IC50 (μM) 10% DMSO, 10% DMSO

smilesRecord	experimentalSystem	relation	IC50 (µM)
Cc1cc(CC(=O)N2C[C@H](O)C[C@H]2C(=O)NCc2ccc(-c3cscn3)cc2)on1	VHL (Homo sapiens, UniProt P40337)	=	118
NC(=O)CCC(=O)N1C[C@H](O)C[C@H]1C(=O)NCc1ccc(Cl)cc1	VHL (Homo sapiens, UniProt P40337)	=	332
O=C(NCc1ccc(Cl)cc1)[C@@H]1C[C@@H](O)CN1C(=O)c1ccc2cn[nH]c2c1	VHL (Homo sapiens, UniProt P40337)	=	47.7
O=C(NCc1ccc(Cl)cc1)[C@@H]1C[C@@H](O)CN1C(=O)c1cccc(-c2ncc[nH]2)c1	VHL (Homo sapiens, UniProt P40337)	=	560
O=C(NCc1ccc(Cl)cc1)[C@@H]1C[C@@H](O)CN1C(=O)c1ccc([N+](=O)[O-])cc1	VHL (Homo sapiens, UniProt P40337)	=	70.7
O=C(NCc1ccc(Cl)cc1)[C@@H]1C[C@@H](O)CN1C(=O)Cc1ccncc1	VHL (Homo sapiens, UniProt P40337)	>	1000
Cc1cc(CC(=O)N2C[C@H](O)C[C@H]2C(=O)NCc2ccc(-c3cccn3C)cc2)on1	VHL (Homo sapiens, UniProt P40337)	=	17.8
N#CCC(=O)N1C[C@H](O)C[C@H]1C(=O)NCc1ccc(Cl)cc1	VHL (Homo sapiens, UniProt P40337)	>	1000
O=C(NCc1ccc(Cl)cc1)[C@@H]1C[C@@H](O)CN1C(=O)c1ccccc1Cl	VHL (Homo sapiens, UniProt P40337)	=	39
O=C(NCc1ccc(Cl)cc1)[C@@H]1C[C@@H](O)CN1C(=O)c1cc(-c2ccccc2)on1	VHL (Homo sapiens, UniProt P40337)	>	1000
O=C(NCc1ccc(Cl)cc1)[C@@H]1C[C@@H](O)CN1C(=O)Cc1cccnc1	VHL (Homo sapiens, UniProt P40337)	>	1000
Cc1cc(CC(=O)N2C[C@H](O)C[C@H]2C(=O)NCc2ccc(-c3cn[nH]c3)cc2)on1	VHL (Homo sapiens, UniProt P40337)	=	24.7
N#Cc1cc(Br)cc(C(=O)N2C[C@H](O)C[C@H]2C(=O)NCc2ccc(Cl)cc2)c1	VHL (Homo sapiens, UniProt P40337)	=	205
O=C(NCc1ccc(Cl)cc1)[C@@H]1C[C@@H](O)CN1C(=O)c1cccc2cccnc12	VHL (Homo sapiens, UniProt P40337)	=	760
O=C(NCc1ccc(-c2ccccc2)cc1)[C@@H]1C[C@@H](O)CN1Cc1ccccc1Cl	VHL (Homo sapiens, UniProt P40337)	>	1000
COC(=O)Cc1cn(-c2ccccc2C(=O)N2C[C@H](O)C[C@H]2C(=O)NCc2ccc(Cl)cc2)nn1	VHL (Homo sapiens, UniProt P40337)	=	978
Cc1cc(CC(=O)N2C[C@H](O)C[C@H]2C(=O)NCc2cccc(-c3cccn3C)c2)on1	VHL (Homo sapiens, UniProt P40337)	=	16.4
Cc1cc(CC(=O)N2C[C@H](O)C[C@H]2C(=O)N[C@@H](C)c2ccc([N+](=O)[O-])cc2)on1	VHL (Homo sapiens, UniProt P40337)	=	15.1
O=C(NCc1ccc(Cl)cc1)[C@@H]1C[C@@H](O)CN1C(=O)c1cccc2[nH]ccc12	VHL (Homo sapiens, UniProt P40337)	=	990
N#Cc1cc(S(=O)(=O)N2C[C@H](O)C[C@H]2C(=O)NCc2ccc(Cl)cc2)ccc1F	VHL (Homo sapiens, UniProt P40337)	>	1000
O=C(Nc1ccc(Br)cc1F)[C@@H]1C[C@@H](O)CN1S(=O)(=O)c1ccc2ccccc2c1	VHL (Homo sapiens, UniProt P40337)	>	1000
Cc1cc(CC(=O)N2C[C@H](O)C[C@H]2C(=O)OCc2ccc(-c3ccccc3)cc2)on1	VHL (Homo sapiens, UniProt P40337)	=	780
Cc1cc(CC(=O)N2C[C@H](O)C[C@H]2C(=O)NCc2ccc(-c3cccnc3)cc2)on1	VHL (Homo sapiens, UniProt P40337)	=	66.9
Cc1cc(CC(=O)N2C[C@H](O)C[C@H]2C(=O)NCc2ccc(Cl)cc2)on1	VHL (Homo sapiens, UniProt P40337)	=	36
COc1cc(/C=C/C(=O)N2C[C@H](O)C[C@H]2C(=O)NCc2ccc(Cl)cc2)cc(OC)c1O	VHL (Homo sapiens, UniProt P40337)	>	1000
Cc1cc(CC(=O)N2C[C@H](O)C[C@H]2C(=O)NCc2ccc(-c3ocnc3C)cc2)on1	VHL (Homo sapiens, UniProt P40337)	=	5
O=C(NCc1ccc(Cl)cc1)[C@@H]1C[C@@H](O)CN1C(=O)Cc1cccc(Br)c1	VHL (Homo sapiens, UniProt P40337)	=	910
CS(=O)(=O)c1ccc(CC(=O)N2C[C@H](O)C[C@H]2C(=O)NCc2ccc(Cl)cc2)cc1	VHL (Homo sapiens, UniProt P40337)	>	1000
O=C(NCc1ccc(Cl)cc1)[C@@H]1C[C@@H](O)CN1C(=O)c1ccnc(Cl)c1	VHL (Homo sapiens, UniProt P40337)	=	39.6
Cc1ccc(S(=O)(=O)N2C[C@H](O)C[C@H]2C(=O)NCCc2ccc(O)cc2)cc1	VHL (Homo sapiens, UniProt P40337)	>	1000
O=C(NCc1ccc(Cl)cc1)[C@@H]1C[C@@H](O)CN1C(=O)c1cccc(O)c1	VHL (Homo sapiens, UniProt P40337)	=	17
Cn1cc(CC(=O)N2C[C@H](O)C[C@H]2C(=O)NCc2ccc(Cl)cc2)cn1	VHL (Homo sapiens, UniProt P40337)	=	372
Cc1cc(CC(=O)N2C[C@H](O)C[C@H]2C(=O)NCc2cccc(-c3cc[nH]c3)c2)on1	VHL (Homo sapiens, UniProt P40337)	=	48.1
